Where these numbers come from: patent US20240182563A1

Subject of test: T1, mouse CNTN4-rabbit Fc (mouse; rabbit, UniProt Q69Z26 19-1000, limits assumed)
T1 construct: not shown: rabbit Fc
T1 sequence (looked up): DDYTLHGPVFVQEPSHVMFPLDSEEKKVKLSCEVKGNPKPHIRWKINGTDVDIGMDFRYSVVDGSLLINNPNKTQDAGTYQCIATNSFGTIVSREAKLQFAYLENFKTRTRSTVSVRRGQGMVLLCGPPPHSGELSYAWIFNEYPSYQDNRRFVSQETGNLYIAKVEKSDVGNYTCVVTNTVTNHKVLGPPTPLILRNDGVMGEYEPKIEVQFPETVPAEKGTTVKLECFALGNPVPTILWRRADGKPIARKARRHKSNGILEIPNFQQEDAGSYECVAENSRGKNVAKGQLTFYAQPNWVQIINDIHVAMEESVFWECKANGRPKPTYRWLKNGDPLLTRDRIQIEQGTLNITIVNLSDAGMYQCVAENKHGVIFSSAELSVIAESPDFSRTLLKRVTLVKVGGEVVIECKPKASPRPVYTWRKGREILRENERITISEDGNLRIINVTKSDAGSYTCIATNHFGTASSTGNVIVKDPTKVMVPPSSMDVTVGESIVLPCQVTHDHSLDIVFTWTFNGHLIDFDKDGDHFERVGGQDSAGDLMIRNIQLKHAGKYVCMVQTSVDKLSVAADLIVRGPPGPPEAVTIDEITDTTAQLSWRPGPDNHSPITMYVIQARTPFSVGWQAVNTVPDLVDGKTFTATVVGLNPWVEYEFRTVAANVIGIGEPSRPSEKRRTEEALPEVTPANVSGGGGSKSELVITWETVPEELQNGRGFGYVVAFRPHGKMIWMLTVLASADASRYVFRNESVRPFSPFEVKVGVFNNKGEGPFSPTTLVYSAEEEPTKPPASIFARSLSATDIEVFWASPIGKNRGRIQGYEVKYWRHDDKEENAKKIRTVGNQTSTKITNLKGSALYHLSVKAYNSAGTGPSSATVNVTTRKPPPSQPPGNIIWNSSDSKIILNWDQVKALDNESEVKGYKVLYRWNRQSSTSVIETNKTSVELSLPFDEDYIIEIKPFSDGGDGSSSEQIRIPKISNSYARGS
Test details: ELISA, plate coated with antigen-rabbit Fc, anti-human kappa-HRP
Observed property: pEC50
Kindly note that pEC50 refers to -log10 of the concentration in mol/L and answer with the value alone.

Binder	Observed property	Value
anti-CNTN4 scFv-hCk S129 (scFv, part only; not given: linker and kappa constant region, not shown: a dimerising Fc or GST) scFv, part: ALTQPSSVSANLGETVKITCSGSSGSYGWYQQKSPGSAPVTLIYDNTNRPSDIPSRFSGSGSGSTGTLTITGVRAEDEAVYYCGGYDGSTDVFGAGTTLTVLAVTLDESEGGLQTPGGALSLVCKASGFTFSSFNMFWVRQAPGKGLEYVAEISGGGGSTWYAPAVKGRATISRDNGQSTVRLQLNNLRAEDTGTYYCAKSADTWSYGAATIDAWGHGTEVIVSS	pEC50	9.43
anti-CNTN4 scFv-hCk S132 (scFv, part only; not given: linker and kappa constant region, V domains shown, not shown: another chain or arm of the molecule; a dimerising Fc or GST; small tags and cut ends) VL: ALTQPSSVSANPGETVKITCSGGGSSTYYGWYQQKSPGSAPVTVIYNNNNRPSDIPSRFSGSGSGSTGTLTITGVRAEDEAVYYCGGYDGSTDVFGAGTTLTVL VH: AVTLDESGGGLQTPGGALSLVCKASGFTFSSFNMFWVRQAPGKGLEYVAEISGGGGSTWYAPAVKGRATISRDNGQSTVRLQLNNLRAEDTGTYYCAKSADTWSYGAATIDAWGHGTEVIVSS	pEC50	9.14

Give pEC50 for anti-CNTN4 scFv-hCk S135 (scFv, part only; not given: linker and kappa constant region, V domains shown, not shown: another chain or arm of the molecule; a dimerising Fc or GST; small tags and cut ends) VL: ALTQPSSVSANPGETVKITCSGGGSSSYYGWYQQKSPGSAPVTVIYYNNRPSDIPSRFSGSGSGSTGTLTITGVRAEDEAVYYCGGYDGSTDVFGAGTTLTVL VH: AVTLDESEGGLQTPGGALSLVCKASGFTFSSFNMFWVRQAPGKGLEYVAEISGGGGSTWYAPAVKGRATISRDNGQSTVRLQLNNLRAEDTGTYYCAKSADTWSYGAATIDAWGHGTEVIVSS
9.15
